Listed next: entries and their corresponding Ki.
ASSAY_SYSTEM: Glutamate receptor ionotropic, NMDA 2B (Homo sapiens)
Sequence (Q13224 whole entry): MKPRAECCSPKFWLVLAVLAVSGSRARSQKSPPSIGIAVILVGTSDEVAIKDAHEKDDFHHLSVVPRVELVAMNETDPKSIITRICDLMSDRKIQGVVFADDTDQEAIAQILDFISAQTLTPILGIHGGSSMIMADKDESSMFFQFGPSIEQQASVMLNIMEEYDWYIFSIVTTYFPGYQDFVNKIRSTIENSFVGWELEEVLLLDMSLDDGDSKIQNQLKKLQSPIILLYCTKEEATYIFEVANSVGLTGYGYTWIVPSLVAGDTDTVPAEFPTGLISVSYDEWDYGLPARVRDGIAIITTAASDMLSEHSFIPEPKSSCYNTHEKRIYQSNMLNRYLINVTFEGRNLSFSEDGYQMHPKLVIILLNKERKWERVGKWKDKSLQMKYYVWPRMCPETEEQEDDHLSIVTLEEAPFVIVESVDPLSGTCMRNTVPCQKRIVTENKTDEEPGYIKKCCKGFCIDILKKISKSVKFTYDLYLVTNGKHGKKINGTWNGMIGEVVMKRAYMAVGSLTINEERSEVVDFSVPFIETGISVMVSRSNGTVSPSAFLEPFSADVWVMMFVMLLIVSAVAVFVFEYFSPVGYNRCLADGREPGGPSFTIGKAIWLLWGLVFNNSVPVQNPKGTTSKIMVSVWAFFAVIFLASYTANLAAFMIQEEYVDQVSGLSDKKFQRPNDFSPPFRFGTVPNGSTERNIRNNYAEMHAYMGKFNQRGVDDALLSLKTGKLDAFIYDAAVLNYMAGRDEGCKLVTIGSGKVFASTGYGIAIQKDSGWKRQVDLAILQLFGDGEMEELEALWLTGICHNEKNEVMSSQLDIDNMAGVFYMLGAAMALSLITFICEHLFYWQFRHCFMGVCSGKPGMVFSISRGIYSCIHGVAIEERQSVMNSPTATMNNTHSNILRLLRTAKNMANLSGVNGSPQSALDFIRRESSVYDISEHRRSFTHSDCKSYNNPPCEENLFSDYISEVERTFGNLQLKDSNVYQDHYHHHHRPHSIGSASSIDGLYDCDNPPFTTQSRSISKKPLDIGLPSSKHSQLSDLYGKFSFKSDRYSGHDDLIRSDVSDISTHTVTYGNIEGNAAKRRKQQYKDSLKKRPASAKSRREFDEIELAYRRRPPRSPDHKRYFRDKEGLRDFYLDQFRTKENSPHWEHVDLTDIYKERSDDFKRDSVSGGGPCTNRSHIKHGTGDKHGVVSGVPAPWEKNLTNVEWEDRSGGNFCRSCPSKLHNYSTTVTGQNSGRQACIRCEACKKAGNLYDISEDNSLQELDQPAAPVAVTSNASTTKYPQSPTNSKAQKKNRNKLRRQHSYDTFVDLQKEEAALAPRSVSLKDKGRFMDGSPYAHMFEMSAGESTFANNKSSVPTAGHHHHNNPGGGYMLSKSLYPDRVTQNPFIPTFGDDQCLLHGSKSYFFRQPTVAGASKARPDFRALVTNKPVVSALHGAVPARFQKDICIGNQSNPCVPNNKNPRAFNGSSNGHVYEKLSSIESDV
ASSAY_PROTOCOL: Displacement of [3H]ifenprodil from recombinant human GluN2B NMDA receptor (unknown origin) expressed in dexamethasone-induced mouse L-M(TK-) cell after 120 mins by microbeta scintillation counting method
Type: cell-based
Just the number in nM, nothing appended.

Below, each entry is followed by its recorded Ki result.
[
  {
    "SMILES_STRUCTURE": "CCCCCCN1CCN(CCC(=O)Nc2nc3c(C)cccc3s2)CC1",
    "PARAMETER_MEASURED": "Ki",
    "MEASURED_VALUE": 115
  },
  {
    "SMILES_STRUCTURE": "CCCCN1CCN(CCC(=O)Nc2nc3c(C)cccc3s2)CC1",
    "PARAMETER_MEASURED": "Ki",
    "MEASURED_VALUE": 229
  }
]

# next compound below
The recorded Ki with Glutamate receptor ionotropic, NMDA 2B (Homo sapiens) for Cc1cccc2sc(NC(=O)CCN3CCN(CC4CCCCC4)CC3)nc12 was 60

* * *

ASSAY_SYSTEM: UniProtKB P22303
ASSAY_PROTOCOL: Inhibition of human recombinant AChe using acetylthiocholine iodide as substrate incubated for 10 mins by DTNB reagent based Ellman's method
PARAMETER_MEASURED: pIC50
pIC50 (log units): -log10 of the concentration in mol/L.

Below, 5 compounds whose answers are already recorded.
[
  {
    "SMILES_STRUCTURE": "Cc1cccc2sc(NC(=O)CCN3CCN(C4CCCCC4)CC3)nc12",
    "pIC50": 4.96
  },
  {
    "SMILES_STRUCTURE": "Cc1cccc2sc(NC(=O)CCN3CCN(CC4CCCCC4)CC3)nc12",
    "pIC50": 6.47
  },
  {
    "SMILES_STRUCTURE": "Cc1cccc2sc(NC(=O)CCN3CCN(c4ccccn4)CC3)nc12",
    "pIC50": 4.76
  },
  {
    "SMILES_STRUCTURE": "Cc1cccc2sc(NC(=O)CCN3CCN(CCN(C(C)C)C(C)C)CC3)nc12",
    "pIC50": 6.62
  },
  {
    "SMILES_STRUCTURE": "CC(=O)c1ccc(N2CCN(CCC(=O)Nc3nc4c(C)cccc4s3)CC2)cc1",
    "pIC50": 5.42
  }
]

Now for another entry.
Item: Cc1cccc2sc(NC(=O)CCN3CCN(Cc4ccc(C(C)(C)C)cc4)CC3)nc12 | pIC50: 4.40

* * *

Measured pIC50, listed per entry.
ASSAY_SYSTEM: Acetylcholinesterase (Homo sapiens, UniProt P22303)
Sequence (P22303 whole entry): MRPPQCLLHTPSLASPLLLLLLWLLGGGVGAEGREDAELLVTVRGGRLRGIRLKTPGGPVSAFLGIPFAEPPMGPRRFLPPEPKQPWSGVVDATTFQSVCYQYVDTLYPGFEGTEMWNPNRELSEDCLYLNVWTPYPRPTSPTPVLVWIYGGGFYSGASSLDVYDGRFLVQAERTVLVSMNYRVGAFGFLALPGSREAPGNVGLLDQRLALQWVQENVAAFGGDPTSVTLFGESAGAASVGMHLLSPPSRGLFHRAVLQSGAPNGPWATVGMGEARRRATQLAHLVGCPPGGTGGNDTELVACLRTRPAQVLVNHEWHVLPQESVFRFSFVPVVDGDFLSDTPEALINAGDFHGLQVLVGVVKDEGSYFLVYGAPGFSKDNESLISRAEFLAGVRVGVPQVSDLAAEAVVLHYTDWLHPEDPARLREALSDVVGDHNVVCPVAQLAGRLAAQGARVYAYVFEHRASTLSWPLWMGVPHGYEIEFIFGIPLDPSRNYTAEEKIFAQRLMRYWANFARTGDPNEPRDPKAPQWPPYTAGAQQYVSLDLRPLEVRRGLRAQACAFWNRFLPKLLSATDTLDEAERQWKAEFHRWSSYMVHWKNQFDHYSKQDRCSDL
ASSAY_PROTOCOL: Inhibition of human recombinant AChe using acetylthiocholine iodide as substrate incubated for 10 mins by DTNB reagent based Ellman's method
In textbook form, pIC50 equals minus log to base ten of the concentration in mol/L.

[
  {
    "MOLECULE": "Cc1cccc2sc(NC(=O)CCN3CCN(CC4CCCO4)CC3)nc12 (racemic)",
    "MEASURED_VALUE": 5.10
  },
  {
    "MOLECULE": "Cc1cccc2sc(NC(=O)CCN3CCN(c4ncccn4)CC3)nc12",
    "MEASURED_VALUE": 4.52
  },
  {
    "MOLECULE": "CCN1CCN(CCC(=O)Nc2nc3c(C)cccc3s2)CC1",
    "MEASURED_VALUE": 4.69
  }
]

pIC50 for Cc1cccc2sc(NC(=O)CCN3CCN(c4ccncc4)CC3)nc12 is 4.74
